- TGT: PHD2181-417 (Homo sapiens (Human))
- Sequence (Q9GZT9 181-417): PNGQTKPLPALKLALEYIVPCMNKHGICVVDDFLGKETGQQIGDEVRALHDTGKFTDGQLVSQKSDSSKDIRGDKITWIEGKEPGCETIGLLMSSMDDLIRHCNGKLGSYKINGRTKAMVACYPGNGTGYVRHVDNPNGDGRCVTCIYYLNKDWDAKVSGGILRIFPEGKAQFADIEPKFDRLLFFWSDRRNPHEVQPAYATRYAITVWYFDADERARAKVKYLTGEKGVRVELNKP
- PROTOCOL_SUMMARY: PHD enzymatic assay ([14C]-succinic acid production)
- Format: biochemical
- CONDITION_SUMMARY: purified PHD2181-417, HIF-1α peptide substrate, 30 min pre-incubation; average of results
PROPERTY: Enzyme pIC50

>  <CHEM_SMILES>
O=C(O)c1cnn(-c2nc(N3CCOCC3)c3cc(OC4CCCCC4)ccc3n2)c1

>  <Enzyme pIC50>
6.4

$$$$
>  <CHEM_SMILES>
CCCCN(CCCC)c1nc(-n2cc(C(=O)O)cn2)nc2cc(F)c(Oc3c(C)cccc3C)cc12

>  <Enzyme pIC50>
7.1

$$$$
>  <CHEM_SMILES>
O=C(O)c1cnn(-c2nc(N3CCC(F)CC3)c3ccc(Oc4ccccc4)cc3n2)c1

>  <Enzyme pIC50>
6.3

$$$$
>  <CHEM_SMILES>
CC(=O)NC1CCN(c2nc(-n3cc(C(=O)O)cn3)nc3cc(F)c(Oc4c(C)cccc4C)cc23)CC1

>  <Enzyme pIC50>
6.9

$$$$
>  <CHEM_SMILES>
O=C(O)c1cnn(-c2nc(N3CCSCC3)c3cc(Oc4ccc(Cl)cc4)ccc3n2)c1

>  <Enzyme pIC50>
7.3

$$$$
>  <CHEM_SMILES>
O=C(O)c1cnn(-c2nc(N3CCOCC3)c3cc(OC4CCCCC4)c(F)cc3n2)c1

>  <Enzyme pIC50>
6.6

$$$$
